- ASSAYED SYSTEM: U87 IDH1R132H (Homo sapiens (Human), UniProt O75874, R132H)
- Sequence (O75874 whole entry R132H): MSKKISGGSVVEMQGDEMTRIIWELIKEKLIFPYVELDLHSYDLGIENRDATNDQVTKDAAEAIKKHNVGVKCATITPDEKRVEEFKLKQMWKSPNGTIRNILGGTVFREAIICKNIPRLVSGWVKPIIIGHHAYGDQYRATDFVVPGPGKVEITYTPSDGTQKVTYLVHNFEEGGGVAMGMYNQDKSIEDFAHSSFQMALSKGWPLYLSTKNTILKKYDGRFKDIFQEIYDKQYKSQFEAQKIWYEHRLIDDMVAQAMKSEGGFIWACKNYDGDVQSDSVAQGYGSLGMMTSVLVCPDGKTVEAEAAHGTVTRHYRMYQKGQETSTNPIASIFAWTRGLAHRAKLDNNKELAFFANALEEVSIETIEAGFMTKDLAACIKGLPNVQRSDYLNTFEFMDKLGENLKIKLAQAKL
- EXPERIMENTAL DETAILS: U87 IDH1 R132H 2-HG cellular assay
- Assay type: cell-based
- CONDITION DESCRIPTION: extracellular 2HG, 24 h treatment, IDH1 mutant-U-87 isogenic cell line
MEASURED ATTRIBUTE: IC50 (nM)

Example entries and their recorded answers appear below.
COMPOUND	UNIT SPEC	IC50
C=CC(=O)N1CCN(C2COCCCC[C@H](C)N3C(=O)OCc4cnc(nc43)N[C@@H](C)c3ccc2cc3)CC1 (stereo partly shown) [Example 10]	nM	0.31
C=CC(=O)N1CCN(C2CCCCCC[C@H](C)N3C(=O)OCc4cnc(nc43)N[C@@H](C)c3ccc2cc3)CC1 (stereo partly shown) [Example 9]	nM	0.14
C=CC(=O)N1CCN(C2CC/C=C\CCCCN3C(=O)OCc4cnc(nc43)N[C@@H](C)c3ccc2cc3)CC1 (stereo partly shown) [Example 2]	nM	0.31
C=CC(=O)N1CCN(C2CCCCCCCCN3C(=O)OCc4cnc(nc43)N[C@@H](C)c3ccc2cc3)CC1 (stereo partly shown) [Example 1]	nM	0.32
C=CC(=O)N1CCN(C2CCCCCCCN3C(=O)OCc4cnc(nc43)N[C@@H](C)c3ccc2cc3)CC1 (stereo partly shown) [Example 4]	nM	0.2

P. C=CC(=O)N1CCN(C2CCCCCCN3C(=O)OCc4cnc(nc43)N[C@@H](C)c3ccc2cc3)CC1 (single isomer, unassigned) [Example 7]
Q. C=CC(=O)N1CCN(C2CCCC/C=C/CCN3C(=O)OCc4cnc(nc43)N[C@@H](C)c3ccc2cc3)CC1 (stereo partly shown) [Example 5]
# return whichever of P and Q has the smaller IC50 Give the label of your selection. Q

----------
- ASSAYED SYSTEM: TF1 IDH2R140Q (Homo sapiens (Human), UniProt P48735, R140Q)
- Sequence (P48735 40-452 R140Q): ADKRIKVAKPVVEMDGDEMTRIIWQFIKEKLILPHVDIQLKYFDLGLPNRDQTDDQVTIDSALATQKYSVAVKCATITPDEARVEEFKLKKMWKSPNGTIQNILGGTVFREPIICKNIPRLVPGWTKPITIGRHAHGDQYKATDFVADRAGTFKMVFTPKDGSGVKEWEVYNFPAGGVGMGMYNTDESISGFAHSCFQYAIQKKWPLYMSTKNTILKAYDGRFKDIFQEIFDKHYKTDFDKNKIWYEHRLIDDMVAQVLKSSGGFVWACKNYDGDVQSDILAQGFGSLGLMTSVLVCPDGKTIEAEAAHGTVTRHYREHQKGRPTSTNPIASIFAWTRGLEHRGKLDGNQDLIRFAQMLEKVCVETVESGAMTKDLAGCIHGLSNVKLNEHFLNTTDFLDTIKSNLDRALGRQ
- EXPERIMENTAL DETAILS: TF1 IDH2 R140Q 2-HG cellular assay
- CONDITION DESCRIPTION: extracellular 2HG, 24 hr treatment, IDH2 mutant-TF1 isogenic cell line
MEASURED ATTRIBUTE: IC50 (nM)

COMPOUND	IC50, nM
C=CC(=O)N1CCN(C2CC/C=C\CCCCN3C(=O)OCc4cnc(nc43)N[C@@H](C)c3ccc2cc3)CC1 (stereo partly drawn) [Example 2]	342
C=CC(=O)N1CCN(C2CCCCCCCN3C(=O)OCc4cnc(nc43)N[C@@H](C)c3ccc2cc3)CC1 (stereo partly drawn) [Example 4]	282
C=CC(=O)N1CCN(C2CCCCCCN3C(=O)OCc4cnc(nc43)N[C@@H](C)c3ccc2cc3)CC1 (single isomer, unassigned) [Example 8]	351

----------
- ASSAYED SYSTEM: mIDH1R132H/S280F (Homo sapiens (Human), UniProt O75874, R132H/S280F)
- Sequence (O75874 whole entry R132H/S280F): as the sequence (O75874 whole entry R132H) above, with S280F counted along it
- EXPERIMENTAL DETAILS: mIDH1 R132H/S280F enzymatic activity assay (NADPH fluorescence)
- CONDITION DESCRIPTION: enzyme assay, 1 hour preincubation; read-out: IDH1R132H/S280F IC50
pIC50: −log10 of the molar value.
MEASURED ATTRIBUTE: pIC50

Please review the following examples before continuing.
COMPOUND	EXPERIMENTAL VALUE
C=CC(=O)N1CCN(C2COCCCC[C@H](C)N3C(=O)OCc4cnc(nc43)N[C@@H](C)c3ccc2cc3)CC1 (some centres unmarked)	7.08
C=CC(=O)N1CCN(C2CCCCCC[C@H](C)N3C(=O)OCc4cnc(nc43)N[C@@H](C)c3ccc2cc3)CC1 (some centres unmarked)	7.03
C=CC(=O)N1CCN(C2CC/C=C\CCCCN3C(=O)OCc4cnc(nc43)N[C@@H](C)c3ccc2cc3)CC1 (some centres unmarked)	6.55

A. C=CC(=O)N1CCN(C2CCCCCCCN3C(=O)OCc4cnc(nc43)N[C@@H](C)c3ccc2cc3)CC1 (some centres unmarked)
B. C=CC(=O)N1CCN(C2CCCCCCCCN3C(=O)OCc4cnc(nc43)N[C@@H](C)c3ccc2cc3)CC1 (some centres unmarked)
C. C=CC(=O)N1CCN(C2CCCCCCN3C(=O)OCc4cnc(nc43)N[C@@H](C)c3ccc2cc3)CC1 (single isomer, unassigned) [Example 8]
Order the entries by their reported pIC50, beginning at the minimum. Kindly provide the labels arranged according to the requested ordering. C, A, B
(C: 6.04, A: 6.53, B: 6.99)
